- System: SK-MEL-2 melanoma
- ASSAY NOTES: NCI tumour cell line growth inhibition, 48 h
Provide the reported GI50 of each item.

IN: Return the recorded GI50 value; entry: `O=C(/C=C\Sc1nccc(C(F)(F)F)n1)c1ccc(Br)cc1`
OUT: > 100 µM

IN: Return the recorded GI50 value; entry: `CCCC(=O)NNc1[nH]c(-c2ccc(OC)cc2)cc1C(=O)OCC`
OUT: 4.59 µM

IN: Return the recorded GI50 value; entry: `COc1ccc(-c2nc(-c3nc4cc(C)c(C)cc4[nH]3)cc3c2[nH]c2ccccc23)cc1`
OUT: 3.28 µM

IN: Return the recorded GI50 value; entry: `COc1ccc(Nc2ccnc(NCCCNc3ccnc4cc(Cl)ccc34)n2)cc1`
OUT: 1.61 µM

IN: Return the recorded GI50 value; entry: CC(=O)OCC1OC(S[As](C)C)C(OC(C)=O)C1OC(C)=O (stereo not given)
OUT: 1.2 µM

IN: Return the recorded GI50 value; entry: `Cc1ccc(S(=O)(=O)n2cc(C(=O)C(=O)Nc3ccncc3)c3ccccc32)cc1`
OUT: 5.76 µM

IN: Return the recorded GI50 value; entry: `Cn1cnc2c(NCc3ccccc3)nc(NCCO)nc21`
OUT: 44.4 µM

IN: Return the recorded GI50 value; entry: `COc1ccc(F)cc1C(=O)c1cnc(NC2CCN(S(C)(=O)=O)CC2)nc1N`
OUT: 3.48 µM

IN: Return the recorded GI50 value; entry: `Cc1ccc2sc3c(NCCCNCCO)nc4ccccc4c3c(=O)c2c1`
OUT: 1.73 µM

IN: Return the recorded GI50 value; entry: `COc1cc(-c2nc3ccccc3s2)ccc1OCc1nc2n(n1)S(=O)(=O)c1ccccc1N2C`
OUT: > 100 µM

----------
- Test system: MDA-N
- ASSAY NOTES: NCI tumour cell line growth inhibition, 48 h
Where a SMILES comes first, the peptide text is derived from it. The star is where a group is joined. OBn = c1ccc(CO*)cc1
Provide the reported TGI of each item.

IN: Return the recorded TGI value; entry: `N#CC(C#N)=C1CCCCc2ccc([N+](=O)[O-])cc21`
OUT: > 100 µM

IN: Return the recorded TGI value; entry: `Nc1ccn([C@@H]2C=C(CO)[C@@H](O)[C@H]2O)c(=O)n1`
OUT: 500 µM

IN: Return the recorded TGI value; entry: `O=C1c2cccnc2C(=O)c2c1nc1ccccc1c2-c1cncc(-c2c3c(nc4ccccc24)C(=O)c2cccnc2C3=O)c1`
OUT: 0.778 µM

IN: Return the recorded TGI value; entry: `CO[C@H](c1ccccc1)[C@H](O)[C@](O)(c1ccccc1)P(=O)(OC)OC`
OUT: > 100 µM

IN: Return the recorded TGI value; entry: `CC1(C)OC(=O)CC12CCN(Cc1ccccc1)CC2`
OUT: > 100 µM

IN: Return the recorded TGI value; entry: `C(/C=N/NC1=NCCCN1)=N\NC1=NCCCN1`
OUT: > 100 µM

IN: Return the recorded TGI value; entry: C[C@@H]1OC2(O)[C@@H]3CCCN3C(=O)N(Cc3ccccc3)N2C1=O (some centres not stated)
OUT: > 100 µM

IN: Return the recorded TGI value; entry: COc1ccc(N2C(=O)/C(=C\c3cc(OC)c(OC)c(OC)c3)S(=O)(=O)C2c2ccccc2)cc1 (configuration not stated)
OUT: 40.8 µM

IN: Return the recorded TGI value; entry: `CCOC(=O)/C(=C\NC(C)(C)C)c1nc2ccccc2o1`
OUT: > 100 µM

IN: Return the recorded TGI value; entry: `COC(=O)c1cc(C#N)[nH]c1-c1cccs1`
OUT: > 100 µM

IN: Return the recorded TGI value; entry: `CCn1c(SCC(=O)NNC(=S)Nc2ccc(F)cc2)nc2ccccc2c1=O`
OUT: > 100 µM

IN: Return the recorded TGI value; entry: `O=C(CCCN1CC=C(n2c(=O)[nH]c3ccccc32)CC1)c1cccs1`
OUT: > 100 µM

IN: Return the recorded TGI value; entry: `O=C1OC2(c3ccc(O)cc3Oc3cc(O)ccc32)c2c1c(-c1ccccc1)c(-c1ccccc1)c(-c1ccccc1)c2-c1ccccc1`
OUT: 44.9 µM

IN: Return the recorded TGI value; entry: `Cc1ccnc2c1ccc1nc3ccccc3n12`
OUT: > 100 µM

IN: Return the recorded TGI value; entry: `O=c1c2c3c(sc2nc2n1N=CN(c1ccc(Cl)cc1)C2)CCCC3`
OUT: > 100 µM

IN: Return the recorded TGI value; entry: O=C(O)c1cccc(CC(Br)C(=O)O)c1 (configuration not stated)
OUT: > 100 µM

IN: Return the recorded TGI value; entry: COc1c(O)cc2c(c1O)C1O[C@H](CO)C(O)[C@H](O)[C@H]1OC2=O (some centres not stated)
OUT: > 100 µM

IN: Return the recorded TGI value; entry: `CCCCc1ccc(N2C(=O)c3cccnc3S2(=O)=O)cc1`
OUT: > 100 µM

IN: Return the recorded TGI value; entry: `COc1ccc(-n2cnc3c(NC(C)(C)C(=O)O)ncnc32)cc1`
OUT: > 100 µM

IN: Return the recorded TGI value; entry: C=CC(c1ccccc1)C1(O)c2cccc(O)c2C(=O)c2c(O)cccc21 (configuration not stated)
OUT: 20.7 µM

IN: Return the recorded TGI value; entry: `ON(CCc1ccccn1)Cc1ccccc1`
OUT: > 100 µM

IN: Return the recorded TGI value; entry: `CCOC(=O)c1c(NC(=O)c2ccc(OC)cc2)sc2c1CCCC2`
OUT: > 100 µM

IN: Return the recorded TGI value; entry: `Nc1c(Cl)c([N+](=O)[O-])cc2c1OCCCCO2`
OUT: > 100 µM

IN: Return the recorded TGI value; entry: `CN1CCC/C1=C1\C(=O)c2cccn2C1=O`
OUT: > 100 µM

IN: Return the recorded TGI value; entry: `O=C(/C=C/c1ccccc1)CCC1C(=O)NC(=O)NC1=O`
OUT: > 100 µM

IN: Return the recorded TGI value; entry: NC(CCC(=O)OCc1ccccc1)C(=O)NC(CCC(=O)OCc1ccccc1)C(=O)O (configuration not stated) (H-Glu(OBn)-Glu(OBn)-OH; configuration not given here)
OUT: > 100 µM

IN: Return the recorded TGI value; entry: COc1ccc(NC(C)=O)cc1N1C(=O)/C(=C\c2cc(OC)c(OC)c(OC)c2)S(=O)(=O)C1c1ccccc1 (configuration not stated)
OUT: > 100 µM

----------
- Tested on: KM12 colon
- ASSAY NOTES: NCI tumour cell line growth inhibition, 48 h
METRIC NAME: TGI

IN: Param request: TGI | system KM12 colon | item CC1C(=O)N(C)C2(CO)C(=O)O[C@H](C)C12O (stereo not given in full)
OUT: > 100 µM

IN: Param request: TGI | system KM12 colon | item `CC(C)=CCC[C@@H](C)C1=C(Nc2ccccc2)C(O)=C(C)C(=O)C1=O`
OUT: 20.7 µM

IN: Param request: TGI | system KM12 colon | item COc1ccc(-c2cc(-c3ccco3)c(C#N)c(=S)n2C2OC(CO)C(O)C(O)C2O)cc1 (stereo not given)
OUT: > 100 µM

IN: Param request: TGI | system KM12 colon | item `COc1ccc(-n2cnc3c(NC(C)(C)C(=O)O)ncnc32)cc1`
OUT: > 100 µM

IN: Param request: TGI | system KM12 colon | item C=C(Cl)C(Br)(CBr)CCC(Br)C(C)(C)Br (stereo not given)
OUT: > 10 µM

IN: Param request: TGI | system KM12 colon | item `C[C@H](CCC1=NCCN1)[C@H]1CC[C@H]2[C@@H]3CC[C@@H]4C[C@H](O)CC[C@]4(C)[C@H]3CC[C@]12C`
OUT: > 47.4 µM

IN: Param request: TGI | system KM12 colon | item `CC(=O)Nc1ccc(/C=C/C(=O)c2sc(C(N)=S)nc2C)cc1`
OUT: > 100 µM

IN: Param request: TGI | system KM12 colon | item `COc1cnc2c(c1)C(=O)c1c-2n(CCCN2CCN(C)CC2)c(=O)c2cc(Cl)ccc12`
OUT: 20.5 µM

IN: Param request: TGI | system KM12 colon | item `N#CC(C#N)=C1CCCCc2ccc([N+](=O)[O-])cc21`
OUT: > 100 µM

IN: Param request: TGI | system KM12 colon | item `Cn1c2cccc3nnc4cccc(c4c32)n1C`
OUT: > 100 µM

----------
- System: A549 NSCLC
- ASSAY NOTES: NCI tumour cell line growth inhibition, 48 h
Provide the reported GI50 of each item.

IN: Return the recorded GI50 value; entry: `O=C(Nc1ccc(Br)c(Cl)c1)c1cc(F)ccc1O`
OUT: 1750 nM

IN: Return the recorded GI50 value; entry: `C=C[C@]1(C)C=C2C(=O)[C@@]3(O)OC(=O)[C@@]4(CCCC(C)(C)[C@H]34)[C@@]2(O)CC1`
OUT: 2380 nM

IN: Return the recorded GI50 value; entry: `COc1cnc2c(c1)C(=O)c1c-2n(CCCN2CCN(C)CC2)c(=O)c2cc(Cl)ccc12`
OUT: 4170 nM

IN: Return the recorded GI50 value; entry: `Cc1cccc(N=C2c3cc([N+](=O)[O-])ccc3-c3c2cc([N+](=O)[O-])cc3[N+](=O)[O-])c1`
OUT: 12300 nM

IN: Return the recorded GI50 value; entry: `COc1cccc2c1c1nc3cc(C)c(C)cc3nc1n2CCN(C)C`
OUT: 1990 nM
